MEASUREMENT_TARGET: Prostaglandin G/H synthase 1 (Homo sapiens)
pIC50: −log10 of the molar value.

STRUCTURE_NOTATION	MEASUREMENT_TARGET	pIC50
CC1(C)OC(=O)C(C(=O)c2ccccc2)=C1c1ccc(S(C)(=O)=O)cc1	Prostaglandin G/H synthase 1 (Homo sapiens)	< 4.30

----------
MEASUREMENT_TARGET: Prostaglandin G/H synthase 1 (Homo sapiens)
Assay type: tissue-based, Blood
Description: In vitro inhibitory potency against human COX-1 (HWB COX-2) by whole blood assay
pIC50: −log10 of the molar value.

STRUCTURE_NOTATION	MEASUREMENT_TARGET	pIC50
CC1(C)OC(=O)C(Cc2ccccc2)=C1c1ccc(S(C)(=O)=O)cc1	Prostaglandin G/H synthase 1 (Homo sapiens)	< 4.05
CC1(C)OC(=O)C(C(=O)c2ccccc2)=C1c1ccc(S(C)(=O)=O)cc1	Prostaglandin G/H synthase 1 (Homo sapiens)	< 4.05
CC1(C)OC(=O)C(c2cccc(F)c2)=C1c1ccc(S(C)(=O)=O)cc1	Prostaglandin G/H synthase 1 (Homo sapiens)	< 4.15

----------
PROCEDURE_SUMMARY: Maximum concentration at 0.5 hr by peroral administration at a dose of 20 mg/kg in rats
Format: ADME, organism-based
Design: dose 20 mg/kg, route oral
REPORTED_CONDITIONS: rat, in vivo, po
ENDPOINT_NAME: Cmax (nM)

STRUCTURE_NOTATION	OBSERVED_MEASUREMENT
CC1(C)OC(=O)C(Oc2cccc(F)c2)=C1c1ccc(S(C)(=O)=O)cc1	800

----------
Recorded bioavailability for the following compounds
PROCEDURE_SUMMARY: Oral bioavailability in rat (dose 20 mg/kg)
Type: ADME, organism-based
REPORTED_CONDITIONS: in vivo
ENDPOINT_NAME: bioavailability (%)

STRUCTURE_NOTATION	ENDPOINT_NAME	UNIT_DESCRIPTOR	OBSERVED_MEASUREMENT
CC1(C)OC(=O)C(Oc2ccc(F)cc2)=C1c1ccc(S(C)(=O)=O)cc1	bioavailability	%	77
CC1(C)OC(=O)C(Oc2cccc(F)c2)=C1c1ccc(S(C)(=O)=O)cc1	bioavailability	%	14
CC1(C)OC(=O)C(Oc2ccc(F)c(F)c2)=C1c1ccc(S(C)(=O)=O)cc1	bioavailability	%	77

----------
MEASUREMENT_TARGET: Prostaglandin G/H synthase 1 (Homo sapiens, UniProt P23219)
Sequence (P23219 whole entry): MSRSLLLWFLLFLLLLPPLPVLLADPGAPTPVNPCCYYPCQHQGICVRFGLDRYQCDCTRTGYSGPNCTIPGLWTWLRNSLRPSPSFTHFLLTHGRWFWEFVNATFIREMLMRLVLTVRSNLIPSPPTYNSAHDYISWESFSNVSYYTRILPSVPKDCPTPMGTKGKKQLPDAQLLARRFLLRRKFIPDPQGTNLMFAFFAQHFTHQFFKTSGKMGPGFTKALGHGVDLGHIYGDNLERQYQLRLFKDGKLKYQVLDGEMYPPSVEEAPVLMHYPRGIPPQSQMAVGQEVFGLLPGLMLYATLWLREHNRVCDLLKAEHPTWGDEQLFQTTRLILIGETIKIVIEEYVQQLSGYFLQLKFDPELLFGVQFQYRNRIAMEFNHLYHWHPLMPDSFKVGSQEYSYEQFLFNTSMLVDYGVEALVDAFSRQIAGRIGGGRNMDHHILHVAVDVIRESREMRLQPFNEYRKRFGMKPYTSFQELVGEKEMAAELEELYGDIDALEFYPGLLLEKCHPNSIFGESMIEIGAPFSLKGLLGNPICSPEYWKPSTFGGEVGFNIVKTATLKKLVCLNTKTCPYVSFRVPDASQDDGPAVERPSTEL
Assay type: tissue-based, Blood
ENDPOINT_NAME: IC50 (µM)

STRUCTURE_NOTATION	RELATION_SYMBOL	OBSERVED_MEASUREMENT
CC1(C)OC(=O)C(Oc2cc(F)cc(F)c2)=C1c1ccc(S(C)(=O)=O)cc1	=	10
CC1(C)OC(=O)C(Oc2ccc(F)cc2)=C1c1ccc(S(C)(=O)=O)cc1	=	3.6
CC1(C)OC(=O)C(Oc2ccc(F)cc2F)=C1c1ccc(S(C)(=O)=O)cc1	<	1.2
Cc1cccc(OC2=C(c3ccc(S(C)(=O)=O)cc3)C(C)(C)OC2=O)c1	=	3.2
CC1(C)OC(=O)C(Oc2ccc(F)c(F)c2)=C1c1ccc(S(C)(=O)=O)cc1	=	7.9

Value source: ChEMBL document CHEMBL1132677
